- system_tested: human stromelysin (Sln) (Homo sapiens)
- Sequence (P08254 100-272 limits assumed): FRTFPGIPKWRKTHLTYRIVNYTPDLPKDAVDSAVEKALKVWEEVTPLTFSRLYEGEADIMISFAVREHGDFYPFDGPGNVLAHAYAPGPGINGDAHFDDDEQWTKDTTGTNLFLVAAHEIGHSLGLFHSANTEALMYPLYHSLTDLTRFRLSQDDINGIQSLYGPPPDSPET
- protocol_details: In vitro MMP inhibition assay (hydrolysis of fluorogenic MCA peptide substrate), stromelysin
- Type: biochemical
- experimental_conditions: Table 1; Ki,app; MCA peptide substrate 10 μM, 37° C., pH 7.5, 2% DMSO; read-out: Sin Ki
- Experimental: The catalytic domain of human stromelysin (Sln) was obtained by expression and purification of a C-terminally truncated prostromelysin-1 from E. coli host BL21 (see Marcy et al. Biochem., 1991, 30, 6476). […] The assay method was based on the hydrolysis of MCA-Pro-Leu-Gly-Leu-DPA-Ala-Arg-NH2 (American Peptide Co.) at 37° C. […] The fluorescence changes were monitored with a Perkin-Elmer LS-50B fluorimeter using an excitation wavelength of 328 nm and an emission wavelength of 393 nm. […]
pKi: −log10 of the molar value.
Entries get a class label from measured pKi. See ranges: class 0 (below 5), class 1 (5 to below 6), class 2 (6 or more)

{"columns": ["molecule", "system_tested", "qualitative_label"],
 "data": [
  ["Cc1cc(CSC(C)(C)[C@@H](NS(=O)(=O)c2ccc(Oc3ccc(F)cc3)cc2)C(=O)O)no1", "human stromelysin (Sln) (Homo sapiens)", "class 1"],
  ["CC(C)(SCc1ccccc1)[C@@H](NS(=O)(=O)c1ccc(Oc2ccccc2)cc1)C(=O)NO", "human stromelysin (Sln) (Homo sapiens)", "class 2"],
  ["CC(C)([C@@H](NS(=O)(=O)c1ccc(Oc2ccc(Br)cc2)cc1)C(=O)NO)[S+]([O-])Cc1ccccn1 (mixture of isomers)", "human stromelysin (Sln) (Homo sapiens)", "class 2"],
  ["CC(C)(SCc1nccn1Cc1ccccc1)[C@@H](NS(=O)(=O)c1ccc(Oc2ccc(Br)cc2)cc1)C(=O)O", "human stromelysin (Sln) (Homo sapiens)", "class 2"],
  ["CC(C)(C)OC(=O)CSC(C)(C)[C@@H](NS(=O)(=O)c1ccc(Oc2ccc(F)cc2)cc1)C(=O)O", "human stromelysin (Sln) (Homo sapiens)", "class 1"],
  ["Cc1cc(CSC(C)(C)[C@@H](NS(=O)(=O)c2ccc(Sc3ccncc3)cc2)C(=O)O)no1", "human stromelysin (Sln) (Homo sapiens)", "class 0"],
  ["CSC(C)(C)[C@@H](NS(=O)(=O)c1ccc(Oc2ccccc2)cc1)C(=O)O", "human stromelysin (Sln) (Homo sapiens)", "class 1"],
  ["CC(C)(SCc1ccccn1)[C@@H](NS(=O)(=O)c1ccc(Oc2ccc(C(F)(F)F)cc2)cc1)C(=O)O", "human stromelysin (Sln) (Homo sapiens)", "class 1"],
  ["Cn1ccnc1CSC(C)(C)[C@@H](NS(=O)(=O)c1ccc(Oc2ccc(Br)cc2)cc1)C(=O)O", "human stromelysin (Sln) (Homo sapiens)", "class 1"],
  ["CC(C)(SCc1ccccn1)[C@@H](NS(=O)(=O)c1ccc(Oc2ccc(Br)cc2)cc1)C(=O)NO", "human stromelysin (Sln) (Homo sapiens)", "class 2"],
  ["CC(C)(SCc1ccccn1)[C@@H](NS(=O)(=O)c1ccc(Oc2ccc(F)cc2)cc1)C(=O)O", "human stromelysin (Sln) (Homo sapiens)", "class 1"],
  ["CC(C)(C)[C@H](NS(=O)(=O)c1ccc(Oc2ccccn2)cc1)C(=O)NO [Example 10c]", "human stromelysin (Sln) (Homo sapiens)", "class 2"],
  ["CC(C)(C)[C@@H](NS(=O)(=O)c1ccc(Oc2ccc(F)cc2)cc1)C(=O)O", "human stromelysin (Sln) (Homo sapiens)", "class 0"],
  ["CC(C)(C)OC(=O)CSC(C)(C)[C@@H](NS(=O)(=O)c1ccc(Oc2ccc(F)cc2)cc1)C(=O)NO", "human stromelysin (Sln) (Homo sapiens)", "class 2"],
  ["CC(C)(SCc1ccccn1)[C@@H](NS(=O)(=O)c1ccc(Oc2ccc(I)cc2)cc1)C(=O)NO", "human stromelysin (Sln) (Homo sapiens)", "class 2"],
  ["CC(C)(O)[C@@H](NS(=O)(=O)c1ccc(Oc2ccc(Br)cc2)cc1)C(=O)O", "human stromelysin (Sln) (Homo sapiens)", "class 0"],
  ["Cc1cc(CSC(C)(C)[C@@H](NS(=O)(=O)c2ccc(Oc3ccncc3)cc2)C(=O)NO)no1 [Example 10a]", "human stromelysin (Sln) (Homo sapiens)", "class 2"],
  ["CC(C)(C)C(NS(=O)(=O)c1ccc(Oc2ccc(F)cc2)cc1)C(=O)NO (stereo in doubt)", "human stromelysin (Sln) (Homo sapiens)", "class 2"],
  ["Cc1ccc(Oc2ccc(S(=O)(=O)N[C@@H](C(=O)NO)C(C)(C)SCc3ccccn3)cc2)cc1", "human stromelysin (Sln) (Homo sapiens)", "class 2"],
  ["CSC(C)(C)[C@@H](NS(=O)(=O)c1ccc(Oc2ccc(Cl)cc2)cc1)C(=O)O", "human stromelysin (Sln) (Homo sapiens)", "class 0"],
  ["Cc1cc(CSC(C)(C)[C@@H](NS(=O)(=O)c2ccc(Oc3ccc(Br)cc3)cc2)C(=O)O)no1", "human stromelysin (Sln) (Homo sapiens)", "class 1"]
]}
